Tested on: HEK293T cells
experimental-details: Dynamic range / dose-responsiveness to activating ligand, firefly luciferase constructs
Assay type: cell-based
condition-context: optimal copy number, 0-100 μM activating ligand, HEK293T cells
# Dynamic Range values compiled below

molecule	Dynamic Range
Theo-SLIM: theophylline-responsive self-targeting ligand inactivating microRNA (SLIM) switch, SEQ ID NO: 1 (nucleic acid) CGTATCAGCAGGTCCCATAAGCTTTCGACAATTAACGAGTGTGTACTCGTTCTATCATCTCACAGTTAAAGTCGGGAGAATAGGAGCCGCACGGGTCCTGATACCAGCGTGAGCGGAGAGAATCTTCTTTCTGTCTATTAGTGAAGCCACAGATGTAATAGACAGAAAGAAGATTCTCTCCGCCTACGCCCTTGGCAGCACCGTACGGTTCGATC	10.9-fold
L2Bulge9: Theophylline-responsive riboswitch, SEQ ID NO: 11 (nucleic acid) CTCGAGGCGATCGCAAACAAACAAAGCTGTCACCGGATGTGCTTTCCGGTCTGATGAGTCCGTTGTCCAATACCAGCATCGTCTTGATGCCCTTGGCAGTGGATGGGGACGGAGGACGAAACAGCAAAAAGAAAAATAAAAATTTTTTTTTTAATTAATCTTGGGCCC	1.7-fold
